The reported measurements were obtained from paper PMC9226124.

Catalogue of compounds with associated FP signal
Target: 14-3-3β/CFTRpS753pS768 complex (Homo sapiens, UniProt P13569+P31946)
Construct: His6 (cleaved yes); made in house; peptide synthetic
Sequence (P31946 whole entry): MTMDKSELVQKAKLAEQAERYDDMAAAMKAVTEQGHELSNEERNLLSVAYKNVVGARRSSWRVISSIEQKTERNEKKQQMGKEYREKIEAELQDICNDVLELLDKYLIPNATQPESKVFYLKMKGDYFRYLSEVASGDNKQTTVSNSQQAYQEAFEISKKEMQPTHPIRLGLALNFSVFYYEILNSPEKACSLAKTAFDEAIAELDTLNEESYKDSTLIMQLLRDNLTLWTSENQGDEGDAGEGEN
Sequence (P13569 747-774 limits assumed): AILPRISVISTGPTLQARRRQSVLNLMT
Assay: Dose-response fluorescence polarization (FP) assay, compound titration
Format: binding
Conditions: With 14-3-3; compound 0.00025 M
readout-type: FP signal

[[record]]
compound = "CC1NC(=O)C(CCCNC(=N)N)NC(=O)C2CCCN2Cc2cccc(c2)-c2ccccc2CNC(=O)C(CCCNC(=N)N)NC1=O (stereo not drawn) [CY007476]"
val = 186

[[record]]
compound = "N=C(N)NCCCC1NC(=O)C(CCC(N)=O)NC(=O)C(CCCNC(=N)N)NC(=O)C2CCCN2Cc2cccc(c2)-c2ccccc2CNC1=O (stereo not drawn) [CY007455]"
val = 170

[[record]]
compound = "NCCCCC1NCc2ccccc2Sc2ccccc2CNC(=O)C(Cc2cccc(Cl)c2)NC(=O)C(Cc2ccc(O)cc2)NC1=O (stereo not drawn) [CY007288]"
val = 149

